Experiment: Pharmacokinetics of suspension and solution in the rat
Format: in vivo
Details: male, Munich-Wistar, blood, po, 100 mg/kg, gavage, read-out: Cmax
Reported Endpoint: Cmax (ng/mL)
Give a bare numeral; the unit ng/mL is implied.

Param item = CCCc1c(OCCCOc2ccc(C(C)=O)c(OC)c2CCC)ccc2c1OC(C(=O)O)CC2 (racemic) ; retrieve measured Cmax. 10400

###

Experiment: Pharmacokinetics of suspension and solution in the rat
Format: in vivo
Conditions: male, Munich-Wistar, blood, po, 100 mg/kg, gavage, trapezoidal rule, read-out: AUC
Reported Endpoint: AUC (ng·h/mL)
Numbers only; they are read as ng·h/mL.

Consider the compound shown here: CCCc1c(OCCCOc2ccc(C(C)=O)c(OC)c2CCC)ccc2c1OC(C(=O)O)CC2 (racemic) [LMP LBA] What is its recorded AUC? 57000
